# Test system: Physalospora piricola
# ASSAY_METHOD_TEXT: Fungicidal activity, fungi growth rate method, PP
# Assay type: cell-based
# CONDITION_CONTEXT: 50 μg/mL; read-out: Fungicidal activity, inhibition, PP
Assign class by inhibition at 50 µg/mL: not lower than 20% means 1; lower than 20% means 0.

• Cc1ccc(/C=C(\NC(=O)c2ccccc2)C(=O)N2CCC(O)(c3ccc(Br)cc3)CC2)cc1 = 0
• O=C(N/C(=C\c1ccccc1)C(=O)N1CCC(O)CC1)c1ccccc1 = 0
• O=C(N/C(=C\c1ccccc1)C(=O)N1CCOCC1)c1ccccc1 = 0
• Cc1snnc1/C=C(\NC(=O)c1ccccc1)C(=O)N1CCC(O)(c2ccc(Br)cc2)CC1 = 1
• O=C(N/C(=C\c1ccc(Br)cc1)C(=O)N1CCC(O)(c2ccc(Br)cc2)CC1)c1ccccc1 = 0

---

PARAMETER: melting point

- O=C(N/C(=C\c1ccco1)C(=O)N1CCC(O)(c2ccc(Br)cc2)CC1)C1CCCCC1: 121 to 123 °C
- O=C(N/C(=C\c1cccs1)C(=O)N1CCC(O)(c2ccc(Br)cc2)CC1)c1ccccc1: 180 to 182 °C
- COC(=O)[C@H](C)NC(=O)/C(=C/c1ccccc1)NC(=O)c1ccccc1: 147 to 148 °C
- O=C(OCc1ccc(Br)cc1)/C(=C/c1ccccc1)NC(=O)c1ccccc1: 168 to 170 °C
- O=C(N/C(=C\c1ccccc1)C(=O)N1CCC(c2nc(CO)cs2)CC1)c1ccccc1: 118 to 120 °C
- O=C(NCc1cccc(Br)c1)/C(=C/c1ccccc1)NC(=O)c1ccccc1: 180 to 182 °C
- COC(=O)CCCNC(=O)/C(=C/c1ccccc1)NC(=O)c1ccccc1: 110 to 111 °C
- O=C(O)/C(=C/c1ccccc1)NC(=O)c1cccs1: 221 to 223 °C

---

# Test system: Physalospora piricola
# ASSAY_METHOD_TEXT: Fungicidal activity, fungi growth rate method, PP
# Format: cell-based
# CONDITION_CONTEXT: 50 μg/mL; read-out: Fungicidal activity, inhibition, PP
Reported inhibition at 50 µg/mL values for a set of compounds
PARAMETER: inhibition at 50 µg/mL (%)

* O=C(N/C(=C\c1c[nH]cn1)C(=O)N1CCC(O)(c2ccc(Br)cc2)CC1)c1ccccc1 | 7
* O=C(O)/C(=C/c1ccccc1)NC(=O)c1cccs1 | 7
* O=C(O)/C(=C/c1ccccc1)NC(=O)c1ccc(C(F)(F)F)cc1 | 7

---

# System: tobacco mosaic virus (TMV)
# ASSAY_METHOD_TEXT: Anti-TMV inactivation activity (inactivation mode), compound mixed with TMV before inoculation of tobacco leaves
# Type: in vivo
# CONDITION_CONTEXT: Tobacco mosaic virus, read-out: Anti-TMV activity, Inactivation effect (inhibition)
Kindly note that classification relies on inhibition at 100 µg/mL with these boundaries: lower band: < 1%; central band: ≥ 1% and < 50%; upper band: ≥ 50%

• O=C(NCc1cccs1)/C(=C/c1ccccc1)NC(=O)c1ccccc1 [Compound 58] = lower band
• O=C(NC1CCCCC1)/C(=C/c1ccccc1)NC(=O)c1ccccc1 [Compound 40] = lower band
• O=C(N/C(=C\c1ccccc1)C(=O)N1CCC(c2nc(CO)cs2)CC1)c1ccccc1 [Compound 31] = lower band
• CNC(=O)/C(=C/c1csc(C2CCN(C(=O)OC(C)(C)C)CC2)n1)NC(=O)c1ccccc1 [Compound 41] = lower band
• CCOC(=O)c1csc(C2CCN(C(=O)/C(=C/c3ccccc3)NC(=O)c3ccccc3)CC2)n1 [Compound 30] = lower band
• O=C(N/C(=C\c1ccc(Br)cc1)C(=O)N1CCC(O)(c2ccc(Br)cc2)CC1)c1ccccc1 [Compound 19] = lower band
• O=C(NCc1ccc(F)cc1)/C(=C/c1ccccc1)NC(=O)c1ccccc1 [Compound 55] = upper band
• O=C(N/C(=C\c1ccccc1)C(=O)N1CCC(O)(c2ccc(Br)cc2)CC1)c1ccco1 [Compound 13] = upper band
• O=C(NCc1ccc(Br)cc1)/C(=C/c1ccccc1)NC(=O)C1CCCCC1 [Compound 60] = upper band
• CC(C)(C)OC(=O)N1CCC(c2nc(/C=C3\N=C(c4ccccc4)OC3=O)cs2)CC1 [Compound 73] = upper band
• O=C(N/C(=C\c1ccccc1C(F)(F)F)C(=O)N1CCC(O)(c2ccc(Br)cc2)CC1)c1ccccc1 [Compound 22] = upper band
• CNC(=O)/C(=C/c1ccccc1)NC(=O)c1ccccc1 [Compound 32] = central band
• O=C(NCc1ccccc1)/C(=C/c1ccccc1)NC(=O)c1ccccc1 [Compound 53] = upper band
• CC(C)(C)OC(=O)N1CCC(C(=O)N/C(=C\c2ccccc2)C(=O)N2CCC(O)(c3ccc(Br)cc3)CC2)CC1 [Compound 3] = central band
• O=C(N/C(=C\c1ccccc1)C(=O)N1CCC(O)(c2ccc(Br)cc2)CC1)c1cccs1 [Compound 14] = central band
• O=C(NC(Cc1ccccc1)C(=O)N1CCC(c2ccccc2)CC1)c1ccccc1 (stereo not shown) [Compound 48] = central band
• O=C(NCc1ccc(C(F)(F)F)cc1)/C(=C/c1ccccc1)NC(=O)c1ccccc1 [Compound 57] = upper band

---

# Tested on: Phytophthora infestans (Mont) de Bary
# ASSAY_METHOD_TEXT: microbe, parasite or virus in culture
# Format: cell-based
# CONDITION_CONTEXT: Phytophthora infestans, read-out: Fungicidal activity, inhibition, PI
Assign class by inhibition at 50 µg/mL: not lower than 20% means Met; lower than 20% means Not met.

- O=C(O)/C(=C/c1ccccc1)NC(=O)c1cccs1: Not met
- O=C(N/C(=C\c1ccc(F)cc1)C(=O)N1CCC(O)(c2ccc(Br)cc2)CC1)c1ccccc1: Met
- O=C(N/C(=C\c1ccccc1)C(=O)N1CCC(O)(c2ccc(Br)cc2)CC1)c1cccc([N+](=O)[O-])c1: Not met
- O=C(NCc1ccc(Br)cc1)/C(=C/c1ccccc1)NC(=O)C1CCCCC1: Not met
- O=C(NC(Cc1ccccc1)C(=O)N1CCC(c2ccccc2)CC1)c1ccccc1 (stereo not drawn): Met
- CC(C)(C)OC(=O)N1CCC(c2nc(/C=C(\NC(=O)c3ccccc3)C(=O)O)cs2)CC1: Met
- CC(C)(C)OC(=O)N1CCC(C(=O)N/C(=C\c2ccccc2)C(=O)N2CCC(O)(c3ccc(Br)cc3)CC2)CC1: Not met
- O=C(N/C(=C\c1ccccc1C(F)(F)F)C(=O)N1CCC(O)(c2ccc(Br)cc2)CC1)c1ccccc1: Not met
- O=C(N/C(=C\c1ccccc1)C(=O)N1CCC(O)(c2ccc(Br)cc2)CC1)c1cccs1: Not met

---

# System: wheat Gibberella zeae
# ASSAY_METHOD_TEXT: microbe, parasite or virus in culture
# Assay type: cell-based
# CONDITION_CONTEXT: Fusarium graminearum, read-out: Fungicidal activity, inhibition, GZ
Assign class by inhibition at 50 µg/mL: not lower than 30% means Criterion met; lower than 30% means Criterion not met.

* CC(C)(C)OC(=O)N1CCC(c2nc(/C=C3\N=C(c4ccccc4)OC3=O)cs2)CC1 | Criterion not met
* O=C(NCc1cccs1)/C(=C/c1ccccc1)NC(=O)c1ccccc1 | Criterion not met
* CC(C)(C)OC(=O)N1CCC(c2nc(C(=O)NCC(=O)O)cs2)CC1 | Criterion not met
* Cc1snnc1/C=C1\N=C(c2ccccc2)OC1=O | Criterion met
* O=C(N/C(=C\c1ccccc1)C(=O)N1CCC(O)(c2ccc(Br)cc2)CC1)C1CC1 | Criterion not met
* O=C(NCc1ccc(Br)cc1)/C(=C/c1ccccc1)NC(=O)C1CCCCC1 | Criterion met
